# tested system: human ACC2 (Homo sapiens, UniProt O00763)
# Sequence (O00763 whole entry): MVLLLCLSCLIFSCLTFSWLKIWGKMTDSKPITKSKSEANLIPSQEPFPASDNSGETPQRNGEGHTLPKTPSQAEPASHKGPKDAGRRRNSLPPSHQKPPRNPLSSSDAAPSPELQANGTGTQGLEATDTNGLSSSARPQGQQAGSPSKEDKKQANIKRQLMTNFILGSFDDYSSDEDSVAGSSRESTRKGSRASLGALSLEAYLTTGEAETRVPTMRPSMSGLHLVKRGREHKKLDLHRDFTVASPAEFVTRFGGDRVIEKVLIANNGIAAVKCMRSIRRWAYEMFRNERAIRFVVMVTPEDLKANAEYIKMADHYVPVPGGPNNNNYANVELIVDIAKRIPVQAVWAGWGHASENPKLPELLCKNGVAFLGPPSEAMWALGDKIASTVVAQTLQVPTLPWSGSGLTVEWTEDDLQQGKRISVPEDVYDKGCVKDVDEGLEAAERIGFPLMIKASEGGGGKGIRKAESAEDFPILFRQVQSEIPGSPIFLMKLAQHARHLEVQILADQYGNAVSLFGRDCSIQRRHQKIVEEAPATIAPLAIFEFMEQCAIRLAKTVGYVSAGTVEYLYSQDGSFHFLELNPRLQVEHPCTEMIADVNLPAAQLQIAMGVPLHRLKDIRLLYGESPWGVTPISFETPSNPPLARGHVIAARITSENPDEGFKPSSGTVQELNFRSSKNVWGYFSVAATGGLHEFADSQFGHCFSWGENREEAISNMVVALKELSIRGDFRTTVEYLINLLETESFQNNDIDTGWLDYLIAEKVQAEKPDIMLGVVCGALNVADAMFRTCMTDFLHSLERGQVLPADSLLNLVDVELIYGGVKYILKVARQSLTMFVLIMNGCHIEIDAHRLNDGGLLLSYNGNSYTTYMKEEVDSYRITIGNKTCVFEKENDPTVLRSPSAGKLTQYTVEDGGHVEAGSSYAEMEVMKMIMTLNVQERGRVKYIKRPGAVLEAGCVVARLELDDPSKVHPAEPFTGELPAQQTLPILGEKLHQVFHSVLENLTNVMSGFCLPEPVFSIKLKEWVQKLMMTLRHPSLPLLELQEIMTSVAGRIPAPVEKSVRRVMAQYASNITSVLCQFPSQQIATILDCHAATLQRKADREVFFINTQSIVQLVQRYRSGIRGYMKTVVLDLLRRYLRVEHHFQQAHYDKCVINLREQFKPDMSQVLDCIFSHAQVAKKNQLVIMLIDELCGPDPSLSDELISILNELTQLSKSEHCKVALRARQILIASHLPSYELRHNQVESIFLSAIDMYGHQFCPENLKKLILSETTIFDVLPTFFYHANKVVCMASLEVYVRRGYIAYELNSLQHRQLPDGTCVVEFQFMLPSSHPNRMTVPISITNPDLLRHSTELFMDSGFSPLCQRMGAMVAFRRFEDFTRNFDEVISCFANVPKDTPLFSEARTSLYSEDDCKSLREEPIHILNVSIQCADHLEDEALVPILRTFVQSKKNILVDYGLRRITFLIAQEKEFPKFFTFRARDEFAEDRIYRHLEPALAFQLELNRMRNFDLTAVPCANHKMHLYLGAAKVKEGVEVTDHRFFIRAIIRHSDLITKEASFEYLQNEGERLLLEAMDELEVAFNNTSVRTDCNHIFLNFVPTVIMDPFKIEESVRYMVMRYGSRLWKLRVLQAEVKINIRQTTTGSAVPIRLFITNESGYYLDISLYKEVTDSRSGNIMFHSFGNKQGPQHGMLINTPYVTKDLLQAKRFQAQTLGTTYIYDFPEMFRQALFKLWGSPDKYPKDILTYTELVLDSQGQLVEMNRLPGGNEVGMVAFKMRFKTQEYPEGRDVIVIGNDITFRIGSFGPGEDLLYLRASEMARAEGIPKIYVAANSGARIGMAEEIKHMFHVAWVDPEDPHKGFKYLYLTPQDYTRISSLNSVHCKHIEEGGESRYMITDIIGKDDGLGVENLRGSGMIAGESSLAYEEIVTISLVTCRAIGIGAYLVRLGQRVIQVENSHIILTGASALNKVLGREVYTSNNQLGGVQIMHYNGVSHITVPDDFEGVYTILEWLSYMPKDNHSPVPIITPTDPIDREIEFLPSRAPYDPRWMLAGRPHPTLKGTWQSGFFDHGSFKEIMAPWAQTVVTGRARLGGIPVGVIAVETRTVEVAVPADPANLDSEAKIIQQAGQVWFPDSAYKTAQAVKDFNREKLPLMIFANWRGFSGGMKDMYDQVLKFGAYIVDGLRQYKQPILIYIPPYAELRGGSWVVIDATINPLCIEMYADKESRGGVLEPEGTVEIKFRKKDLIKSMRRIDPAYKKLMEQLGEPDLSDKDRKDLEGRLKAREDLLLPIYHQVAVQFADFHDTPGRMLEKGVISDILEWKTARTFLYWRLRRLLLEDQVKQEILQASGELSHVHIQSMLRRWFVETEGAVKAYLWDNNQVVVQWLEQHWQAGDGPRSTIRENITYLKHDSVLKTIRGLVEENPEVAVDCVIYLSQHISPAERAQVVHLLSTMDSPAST
# test description: Acetyl CoA carboxylase (ACC) activity inhibition test, human ACC2
# Type: biochemical
# study conditions: 1 μmol/liter compound; control: DMSO well without test compound; read-out: Inhibition (%) by 1 μmol/liter Chemical, human ACC2
# Excerpt: A. Pharmacological Test Example (Acetyl CoA Carboxylase (ACC) Activity Inhibition Test) […]
Where a name gives a salt, the structure may show the parent alone.
readout type: inhibition at 1 µM (%)

COc1cc(C(=O)N2CCC3(CC2)CC(=O)c2ccccc2O3)nc2c(OC)cccc12 | 96
COc1cc(C(=O)N2CCC3(CC2)CC(=O)c2cc(-c4nnn[nH]4)ccc2O3)nc2c(OC)cccc12 [Example 18, sodium salt] | 99
CCOc1cc(C(=O)N2CCC3(CC2)CC(=O)c2cc(-c4nnn[nH]4)ccc2O3)nc2c(C3CC3)nccc12 | 97
COc1cc(C(=O)N2CCC3(CC2)CC(=O)c2cc(N)ccc2O3)nc2c(OC)cccc12 | 97
COc1cc(C(=O)N2CCC3(CC2)CC(=O)c2cc(Nc4ccnn4C)ccc2O3)nc2c(OC)cccc12 | 99
COc1cc(C(=O)N2CCC3(CC2)CC(=O)c2cc(NC(C)=O)ccc2O3)nc2ccccc12 [Example 2, hydrochloride] | 85
COc1cc(C(=O)N2CCC3(CC2)CC(=O)c2cc(-c4nc[nH]n4)ccc2O3)nc2c(OC)cccc12 | 100
COc1cc(C(=O)N2CCC3(CC2)CC(=O)c2cc(NC(C)=O)ccc2O3)nc2c(OC)cccc12 | 98
